Readings of IC90 for the listed compounds
Tested on: Diplodia maydis (Dm)
Assay: Growth inhibition assay of fungal pathogens
Type: cell-based
Conditions: Stenocarpella maydis, 48 h, Table 4a, read-out: Concentration at 90% Inhibition Dm
Procedure: Compounds of the present invention were evaluated in a growth inhibition assay to determine the ability to control the growth of fungal pathogens, such as Botrtyis cinerea (Bc), Collectotrichum graminicola (Cg), Diplodia maydis (Dm), Fusarium moniliforme (Fm), Fusarium virguhforme (Fv), Phytophthora capsici (Pc), Rhizoctonia solani (Rs), and Septoria tritici (St). […] Plate readings were repeated at both 24 and 48 hours. […]
Give your result in mg/L as a bare value.

Here's what some known entries look like.
• CCOC(=O)c1sc2c(c1C)c(=O)n(C(C)(C)C(=O)N1CCCC1)c(=O)n2C[C@H](OCCO)c1cc(F)ccc1OC = 2
• CCOC(=O)c1sc2c(c1C)c(=O)n(C(C)(C)C(=O)N1CCCCC1)c(=O)n2C[C@H](OC1CCOCC1)c1ccccc1OC = 2
• CCOC(=O)c1sc2c(c1C)c(=O)n(C(C)(C)C(=O)N1CCCC1)c(=O)n2C[C@H](OC(C)C)c1ccccc1OC = 0.4
• CCOC(=O)c1sc2c(c1C)c(=O)n(C(C)(C)C(=O)N1CCCC1)c(=O)n2C[C@H](OCCC#N)c1cc(F)ccc1OC = 2
• CCOC(=O)c1sc2c(c1C)c(=O)n(C(C)(C)C(=O)NC(C)C)c(=O)n2C[C@H](O)c1cc(F)ccc1OC = 2
• CCOC(=O)c1sc2c(c1C)c(=O)n(C(C)(C)C(=O)N1CCCC1)c(=O)n2C[C@H](OC1CCOCC1)c1ccccc1OC = 2

Please turn your attention to the following entry.
Query (compound): CCOC(=O)c1sc2c(c1C)c(=O)n(C(C)(C)C(=O)NC(C)C)c(=O)n2C[C@H](OC(C)C)c1ccccc1OC ; field requested: IC90 0.4

###

System: Collectotrichum graminicola (Cg)
Assay: Growth inhibition assay of fungal pathogens
Format: cell-based
Conditions: 48 h, Table 4b, read-out: Concentration at 90% Inhibition Cg
Attribute: IC90

Example compounds with recorded IC90:
- CCOC(=O)c1sc2c(c1C)c(=O)n(C(C)(C)C(=O)NC(C)C)c(=O)n2C[C@H](OCCS(C)(=O)=O)c1cc(F)ccc1OC [Compound I-36]: 0.4 µg/mL
- CCOC(=O)c1sc2c(c1C)c(=O)n(C(C)(C)C(N)=O)c(=O)n2C[C@H](OCCO)c1cc(F)ccc1OC [Compound I-17]: ≥ 50 µg/mL
- CCOC(=O)c1sc2c(c1C)c(=O)n([C@@H](C)C(=O)N1CCCC1)c(=O)n2C[C@H](OCCC#N)c1cc(F)ccc1OC [Compound I-23]: ≥ 50 µg/mL
- CCOC(=O)c1sc2c(c1C)c(=O)n(C(C)(C)C(=O)NC(C)C)c(=O)n2C[C@H](OCC#N)c1cc(F)ccc1OC [Compound I-33]: 2 µg/mL
- CCOC(=O)c1sc2c(c1C)c(=O)n(C(C)(C)C(=O)N1CCCCC1)c(=O)n2C[C@H](OC1CCOCC1)c1ccccc1OC [Compound I-2]: 0.4 µg/mL

I am curious: what IC90 value has been reported for CCOC(=O)c1sc2c(c1C)c(=O)n(C(C)(C)C(=O)N1CCCC1)c(=O)n2C[C@H](O)c1cc(F)ccc1OC [Compound I-22] ? 10 µg/mL

###

Test system: Fusarium virguliforme (Fv)
Assay: Growth inhibition assay of fungal pathogens
Format: cell-based
Conditions: 48 h, Table 4a, read-out: Concentration at 90% Inhibition Fv
Quantity: IC90 (µg/mL)
Entry rule: numbers only, all in µg/mL.

Item CCOC(=O)c1sc2c(c1C)c(=O)n(C(C)(C)C(=O)N1CCCC1)c(=O)n2C[C@H](OCCOC)c1cc(F)ccc1OC has what recorded IC90? 2

Give the measured IC90 of CCOC(=O)c1sc2c(c1C)c(=O)n(C(C)(C)C(=O)NC(C)C)c(=O)n2C[C@H](OC(C)C)c1ccccc1OC . 0.4

Can you look up the measured IC90 of CCNC(=O)C(C)(C)n1c(=O)c2c(C)c(C(=O)OCC)sc2n(C[C@H](OC(C)C)c2ccccc2OC)c1=O for me? 2

###

Listing of entries alongside the reported IC50.
Target Or Test System: fACC2 (UniProt Q00955)
Sequence (Q00955 whole entry): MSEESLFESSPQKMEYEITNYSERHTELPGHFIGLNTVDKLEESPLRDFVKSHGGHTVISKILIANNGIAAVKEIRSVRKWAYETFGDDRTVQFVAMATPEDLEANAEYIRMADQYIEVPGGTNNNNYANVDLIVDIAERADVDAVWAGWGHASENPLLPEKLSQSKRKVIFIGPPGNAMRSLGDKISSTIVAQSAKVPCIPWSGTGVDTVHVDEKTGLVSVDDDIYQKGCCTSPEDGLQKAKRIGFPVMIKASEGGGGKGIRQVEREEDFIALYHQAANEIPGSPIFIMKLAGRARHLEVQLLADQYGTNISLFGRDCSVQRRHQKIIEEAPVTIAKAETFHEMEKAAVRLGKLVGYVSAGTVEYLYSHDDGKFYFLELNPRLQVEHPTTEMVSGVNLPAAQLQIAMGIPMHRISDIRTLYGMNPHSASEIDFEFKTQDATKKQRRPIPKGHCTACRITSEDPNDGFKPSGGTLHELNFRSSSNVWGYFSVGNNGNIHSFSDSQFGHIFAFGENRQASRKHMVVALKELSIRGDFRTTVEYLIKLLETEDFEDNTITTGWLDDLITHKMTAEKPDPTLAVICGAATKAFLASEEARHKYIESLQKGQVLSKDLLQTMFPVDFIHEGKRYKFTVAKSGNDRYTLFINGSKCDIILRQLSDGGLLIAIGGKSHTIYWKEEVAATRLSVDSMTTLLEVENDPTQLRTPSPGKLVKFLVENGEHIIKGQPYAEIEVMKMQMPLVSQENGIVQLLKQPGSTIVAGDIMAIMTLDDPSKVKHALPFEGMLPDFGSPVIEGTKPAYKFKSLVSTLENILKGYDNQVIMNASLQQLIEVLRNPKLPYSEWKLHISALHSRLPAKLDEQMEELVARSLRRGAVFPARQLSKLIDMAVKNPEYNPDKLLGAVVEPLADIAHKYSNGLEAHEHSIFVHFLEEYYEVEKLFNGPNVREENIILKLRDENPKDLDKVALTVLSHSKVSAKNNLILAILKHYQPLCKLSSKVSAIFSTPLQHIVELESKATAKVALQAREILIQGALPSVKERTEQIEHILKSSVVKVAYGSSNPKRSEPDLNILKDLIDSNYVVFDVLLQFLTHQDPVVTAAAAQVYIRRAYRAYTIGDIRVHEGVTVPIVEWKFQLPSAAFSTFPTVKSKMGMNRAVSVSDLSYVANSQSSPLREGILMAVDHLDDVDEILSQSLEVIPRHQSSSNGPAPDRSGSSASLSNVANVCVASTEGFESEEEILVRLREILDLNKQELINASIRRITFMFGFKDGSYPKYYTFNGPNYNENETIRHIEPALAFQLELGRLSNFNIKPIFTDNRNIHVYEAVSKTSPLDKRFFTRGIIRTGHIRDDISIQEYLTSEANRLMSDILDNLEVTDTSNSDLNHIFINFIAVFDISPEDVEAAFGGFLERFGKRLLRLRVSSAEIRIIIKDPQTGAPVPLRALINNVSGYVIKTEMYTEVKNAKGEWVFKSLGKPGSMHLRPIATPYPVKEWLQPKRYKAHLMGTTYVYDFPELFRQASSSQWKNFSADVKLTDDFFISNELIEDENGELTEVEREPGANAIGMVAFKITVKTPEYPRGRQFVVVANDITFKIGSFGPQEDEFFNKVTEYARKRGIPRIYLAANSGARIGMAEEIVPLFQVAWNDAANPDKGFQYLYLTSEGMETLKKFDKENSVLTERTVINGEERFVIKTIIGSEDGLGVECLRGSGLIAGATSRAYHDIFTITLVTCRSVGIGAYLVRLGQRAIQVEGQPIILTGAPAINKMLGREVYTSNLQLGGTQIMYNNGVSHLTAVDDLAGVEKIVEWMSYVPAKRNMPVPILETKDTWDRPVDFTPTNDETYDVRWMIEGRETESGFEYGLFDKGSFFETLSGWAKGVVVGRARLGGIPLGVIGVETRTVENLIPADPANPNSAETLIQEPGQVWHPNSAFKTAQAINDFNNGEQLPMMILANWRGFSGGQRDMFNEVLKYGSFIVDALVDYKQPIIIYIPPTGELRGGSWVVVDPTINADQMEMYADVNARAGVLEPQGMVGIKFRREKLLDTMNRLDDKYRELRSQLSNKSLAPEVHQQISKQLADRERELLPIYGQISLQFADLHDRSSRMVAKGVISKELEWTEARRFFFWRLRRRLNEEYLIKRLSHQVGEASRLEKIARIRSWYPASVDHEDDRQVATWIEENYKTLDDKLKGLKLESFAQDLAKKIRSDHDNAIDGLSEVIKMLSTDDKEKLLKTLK
Assay: In vitro ACC2 inhibition assay (ADP-Glo), fungal ACC2
Assay type: biochemical
Conditions: Table 2b (additional results)

* CCNC(=O)C(C)(C)n1c(=O)c2c(C)c(C(=O)OCC)sc2n(C[C@H](OCCC#N)c2ccccc2OC)c1=O | 0.3 to 3 nM

# ---- query compound ----
For the record CCOC(=O)c1sc2c(c1C)c(=O)n(C(C)(C)C(=O)NC(C)C)c(=O)n2C[C@H](OCCS(C)(=O)=O)c1cc(F)ccc1OC , what value of IC50 is listed for fACC2 (UniProt Q00955)? 0.3 to 3 nM

###

Entries and their measured MIC follow.
Test system: C. krusei ATCC 6258
Assay: Anti-Fungal (Candida) Activity Assay, broth microtiter MIC
Format: cell-based, Candida krusei
Conditions: Pichia kudriavzevii, ATCC6258, 48 h, Table 3a; 3 replicates; MIC read at 48 h

As a guide, the following entries are already answered.
- CCOC(=O)c1sc2c(c1C)c(=O)n(C(C)(C)C(=O)NC(C)C)c(=O)n2C[C@H](OCCC#N)c1cc(F)ccc1OC [Compound I-15]: 0.25 to 1 µg/mL
- CCOC(=O)c1sc2c(c1C)c(=O)n(C(C)(C)C(=O)N1CCCC1)c(=O)n2C[C@H](OCCC#N)c1cc(F)ccc1OC [Compound I-16]: > 4.1 µg/mL
- CCOC(=O)c1sc2c(c1C)c(=O)n(C(C)(C)C(N)=O)c(=O)n2C[C@H](OCCC#N)c1cc(F)ccc1OC [Compound I-14]: > 4.1 µg/mL
- CCOC(=O)c1sc2c(c1C)c(=O)n(C(C)(C)C(=O)N1CCCC1)c(=O)n2C[C@H](OCCOC)c1cc(F)ccc1OC [Compound I-13]: > 4.1 µg/mL
- CCNC(=O)C(C)(C)n1c(=O)c2c(C)c(C(=O)OCC)sc2n(C[C@H](OC(C)C)c2ccccc2OC)c1=O [Compound I-4]: 2.1 to 4 µg/mL

Please state recorded MIC (tested on C. krusei ATCC 6258) of CCOC(=O)c1sc2c(c1C)c(=O)n(C(C)(C)C(=O)N1CCCCC1)c(=O)n2C[C@H](OC(C)C)c1ccccc1OC [Compound I-6] 2.1 to 4 µg/mL

###

Readings of IC90 for the listed molecules
System: Botrtyis cinerea (Bc)
Assay: Growth inhibition assay of fungal pathogens
Format: cell-based
Conditions: 48 h, Table 4b, read-out: Concentration at 90% Inhibition Bc
Procedure: Compounds of the present invention were evaluated in a growth inhibition assay to determine the ability to control the growth of fungal pathogens, such as Botrtyis cinerea (Bc), Collectotrichum graminicola (Cg), Diplodia maydis (Dm), Fusarium moniliforme (Fm), Fusarium virguhforme (Fv), Phytophthora capsici (Pc), Rhizoctonia solani (Rs), and Septoria tritici (St). […] Plate readings were repeated at both 24 and 48 hours. […]

Example results:
* CCOC(=O)c1sc2c(c1C)c(=O)n(C(C)(C)C(=O)NC(C)C)c(=O)n2C[C@H](OC1CCOCC1)c1ccccc1OC | 0.4 µg/mL
* CCOC(=O)c1sc2c(c1C)c(=O)n(C(C)(C)C(N)=O)c(=O)n2C[C@H](OCCC#N)c1cc(F)ccc1OC | 2 µg/mL
* CCOC(=O)c1sc2c(c1C)c(=O)n(C(C)(C)C(=O)NC(C)C)c(=O)n2C[C@H](OCC(C)(C)C#N)c1cc(F)ccc1OC | 0.4 µg/mL
* CCOC(=O)c1sc2c(c1C)c(=O)n(C(C)(C)C(=O)NC(C)C)c(=O)n2C[C@H](OCCC#N)c1ccccc1OC | 0.4 µg/mL
* CCOC(=O)c1sc2c(c1C)c(=O)n(C(C)(C)C(N)=O)c(=O)n2C[C@H](OCCOC)c1cc(F)ccc1OC | ≥ 50 µg/mL
* CCOC(=O)c1sc2c(c1C)c(=O)n(C(C)(C)C(=O)N1CCCC1)c(=O)n2C[C@H](OCCO)c1cc(F)ccc1OC | 2 µg/mL
* CCOC(=O)c1sc2c(c1C)c(=O)n(C(C)(C)C(=O)NC(C)C)c(=O)n2C[C@H](OCC(C)(C)C#N)c1ccccc1OC | 0.4 µg/mL
* CCOC(=O)c1sc2c(c1C)c(=O)n([C@@H](C)C(=O)NC(C)C)c(=O)n2C[C@H](O)c1cc(F)ccc1OC | 10 µg/mL
* CCOC(=O)c1sc2c(c1C)c(=O)n(C(C)(C)C(=O)N1CCCC1)c(=O)n2C[C@H](OCCOC)c1cc(F)ccc1OC | 2 µg/mL
* CCOC(=O)c1sc2c(c1C)c(=O)n([C@H](C)C(=O)N1CCCC1)c(=O)n2C[C@H](OCCC#N)c1cc(F)ccc1OC | 2 µg/mL

For the molecule CCNC(=O)C(C)(C)n1c(=O)c2c(C)c(C(=O)OCC)sc2n(C[C@H](OCCC#N)c2ccccc2OC)c1=O , what IC90 is on record? 2 µg/mL

Any idea what IC90 was measured for CCNC(=O)[C@H](C)n1c(=O)c2c(C)c(C(=O)OCC)sc2n(C[C@H](OCCC#N)c2cc(F)ccc2OC)c1=O ? 0.4 µg/mL

Reported IC90 for CCOC(=O)c1sc2c(c1C)c(=O)n(C(C)(C)C(N)=O)c(=O)n2C[C@H](OCCO)c1cc(F)ccc1OC : what is it? 10 µg/mL

The values you see were collected from patent US11098055B2.
